Recorded IC50 values for a group of compounds are listed next.
test-target: UniProt:P49327
Sequence (P49327 whole entry, the tested form may be a part): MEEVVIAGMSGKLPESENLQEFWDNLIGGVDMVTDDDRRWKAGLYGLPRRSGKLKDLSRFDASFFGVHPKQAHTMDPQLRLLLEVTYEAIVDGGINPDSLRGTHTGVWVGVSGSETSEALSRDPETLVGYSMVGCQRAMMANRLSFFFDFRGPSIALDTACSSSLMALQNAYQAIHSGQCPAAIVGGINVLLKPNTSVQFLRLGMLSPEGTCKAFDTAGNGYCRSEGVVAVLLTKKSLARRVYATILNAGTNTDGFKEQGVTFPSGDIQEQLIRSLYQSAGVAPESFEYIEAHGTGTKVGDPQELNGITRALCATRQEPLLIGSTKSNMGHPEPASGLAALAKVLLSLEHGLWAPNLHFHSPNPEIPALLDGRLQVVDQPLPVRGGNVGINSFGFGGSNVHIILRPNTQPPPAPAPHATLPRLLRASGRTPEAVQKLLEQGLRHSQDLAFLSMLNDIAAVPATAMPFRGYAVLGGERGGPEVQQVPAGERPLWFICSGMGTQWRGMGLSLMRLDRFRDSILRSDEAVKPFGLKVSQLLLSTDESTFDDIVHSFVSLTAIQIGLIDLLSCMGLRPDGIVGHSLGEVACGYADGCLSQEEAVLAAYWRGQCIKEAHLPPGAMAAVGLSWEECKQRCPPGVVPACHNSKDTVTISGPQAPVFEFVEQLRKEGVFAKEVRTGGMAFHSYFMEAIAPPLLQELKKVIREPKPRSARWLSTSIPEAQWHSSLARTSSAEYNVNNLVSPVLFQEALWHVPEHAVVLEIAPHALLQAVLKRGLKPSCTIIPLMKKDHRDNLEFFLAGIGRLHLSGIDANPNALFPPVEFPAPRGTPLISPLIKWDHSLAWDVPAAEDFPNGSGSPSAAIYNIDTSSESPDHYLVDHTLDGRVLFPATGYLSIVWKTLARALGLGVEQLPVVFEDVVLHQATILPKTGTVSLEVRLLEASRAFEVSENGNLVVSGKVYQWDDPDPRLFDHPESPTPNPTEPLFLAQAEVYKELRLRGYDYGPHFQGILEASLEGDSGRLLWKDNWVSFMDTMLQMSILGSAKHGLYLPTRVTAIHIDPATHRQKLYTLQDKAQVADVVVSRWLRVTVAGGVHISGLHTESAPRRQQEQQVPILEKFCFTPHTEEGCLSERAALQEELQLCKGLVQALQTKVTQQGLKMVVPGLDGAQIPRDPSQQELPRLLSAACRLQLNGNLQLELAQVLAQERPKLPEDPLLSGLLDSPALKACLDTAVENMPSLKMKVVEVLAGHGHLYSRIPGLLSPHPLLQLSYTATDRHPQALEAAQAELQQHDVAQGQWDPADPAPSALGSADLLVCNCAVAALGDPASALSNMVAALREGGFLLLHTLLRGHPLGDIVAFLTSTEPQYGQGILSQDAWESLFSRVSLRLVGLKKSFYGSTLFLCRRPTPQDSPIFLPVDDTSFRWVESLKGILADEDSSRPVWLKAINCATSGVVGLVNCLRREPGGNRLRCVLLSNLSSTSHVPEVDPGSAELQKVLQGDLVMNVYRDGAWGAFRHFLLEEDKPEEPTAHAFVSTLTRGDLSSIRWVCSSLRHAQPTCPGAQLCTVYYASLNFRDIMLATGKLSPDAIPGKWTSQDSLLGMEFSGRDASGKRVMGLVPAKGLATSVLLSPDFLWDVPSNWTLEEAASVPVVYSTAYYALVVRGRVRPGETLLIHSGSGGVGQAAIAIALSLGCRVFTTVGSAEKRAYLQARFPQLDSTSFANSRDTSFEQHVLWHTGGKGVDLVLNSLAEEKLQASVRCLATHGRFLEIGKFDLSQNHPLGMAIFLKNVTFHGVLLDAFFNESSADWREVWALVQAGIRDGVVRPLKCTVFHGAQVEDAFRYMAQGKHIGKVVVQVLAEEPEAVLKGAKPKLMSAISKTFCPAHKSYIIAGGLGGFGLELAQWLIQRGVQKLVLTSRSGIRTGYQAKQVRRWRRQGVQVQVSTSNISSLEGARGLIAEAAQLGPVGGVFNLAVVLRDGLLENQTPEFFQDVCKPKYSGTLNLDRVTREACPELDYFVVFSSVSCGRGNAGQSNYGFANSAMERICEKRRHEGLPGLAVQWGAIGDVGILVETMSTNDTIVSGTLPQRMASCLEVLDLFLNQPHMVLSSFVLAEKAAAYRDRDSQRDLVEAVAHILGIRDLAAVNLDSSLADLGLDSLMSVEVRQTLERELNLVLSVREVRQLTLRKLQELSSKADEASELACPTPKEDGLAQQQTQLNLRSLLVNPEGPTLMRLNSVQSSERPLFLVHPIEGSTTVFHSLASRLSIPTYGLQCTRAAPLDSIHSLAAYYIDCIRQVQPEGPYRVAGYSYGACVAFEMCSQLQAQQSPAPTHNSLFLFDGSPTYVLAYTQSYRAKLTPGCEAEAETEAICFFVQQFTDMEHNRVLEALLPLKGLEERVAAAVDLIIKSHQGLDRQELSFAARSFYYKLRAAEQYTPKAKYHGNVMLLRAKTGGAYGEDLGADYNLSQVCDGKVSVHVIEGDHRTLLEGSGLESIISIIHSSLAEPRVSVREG
assay-comment: FAS thioesterase domain inhibitors, dose response, biochemical, kinetic fluorescence intensity (AID 624326);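 note: rate of fluorescence rise from hydrolysis of a fluorogenic O-methyl fluorescein ester substrate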
Type: functional
The source made the active and inactive calls.

These recorded examples may help you get a feel for the data.
O=[N+]([O-])c1ccc(Sc2n[nH]c(-c3ccc(Cl)cc3Cl)n2)nc1	8.25 µM (active)
Cc1cccn2c(=O)c(/C=C(\C#N)C(N)=O)c(N3CCN(Cc4ccc5c(c4)OCO5)CC3)nc12	9.39 µM (active)
O=C(COC(=O)c1cc([N+](=O)[O-])ccc1N1CCOCC1)c1ccc(F)cc1	9.03 µM (active)

// compound O=C(NCc1ccc(F)cc1)C(C(=O)NCc1ccc(F)cc1)c1ncc(C(F)(F)F)cc1Cl , assay UniProt:P49327, IC50 value: 11.8 µM (active)

// compound NC(=NOC(=O)CCCc1ccccc1)c1cccc([N+](=O)[O-])c1 , assay UniProt:P49327, IC50 value: 11.6 µM (active)

// compound CCOc1ccc(-n2c(SCc3ccc([N+](=O)[O-])cc3)nnc2-c2ccccc2)cc1 , assay UniProt:P49327, IC50 value: 5.2 µM (active)

// compound O=C(Nc1ccc(F)cc1)c1nc(S(=O)(=O)Cc2ccccc2)ncc1Cl , assay UniProt:P49327, IC50 value: 8.67 µM (active)

====

test-target: Streptokinase A (Streptococcus pyogenes serotype M1, UniProt P10520)
Sequence (P10520 whole entry): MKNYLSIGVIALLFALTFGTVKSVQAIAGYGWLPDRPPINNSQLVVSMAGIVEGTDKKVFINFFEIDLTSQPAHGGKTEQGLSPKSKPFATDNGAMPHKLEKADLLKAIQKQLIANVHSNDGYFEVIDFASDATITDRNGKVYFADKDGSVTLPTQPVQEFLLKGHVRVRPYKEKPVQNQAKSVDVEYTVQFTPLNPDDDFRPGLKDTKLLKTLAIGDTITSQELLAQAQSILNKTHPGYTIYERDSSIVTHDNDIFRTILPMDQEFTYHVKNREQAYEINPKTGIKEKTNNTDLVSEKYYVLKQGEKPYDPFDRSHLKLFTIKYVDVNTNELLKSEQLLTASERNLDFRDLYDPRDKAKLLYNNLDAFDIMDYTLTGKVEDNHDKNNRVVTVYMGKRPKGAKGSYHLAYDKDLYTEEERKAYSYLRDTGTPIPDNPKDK
assay-comment: S. pyogenes streptokinase expression inhibitors, potency, dose response, plasminogen activation absorbance, OD405 (AID 1914);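 note: secreted streptokinase activity via plasminogen activation per viability signal from cell pellet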
Type: functional, Streptococcus pyogenes M1 GAS
Activity calls are given as the source filed them.
Recorded EC50 values for a group of molecules are listed next.

Reported EC50 ( CNC(=O)c1c(NC(=O)c2ccc(N3C(=O)CCC3=O)cc2)sc2c1CCC(C)C2 (stereo not drawn) ) = > 150 µM (not active)

Reported EC50 ( Cc1ccc(S(=O)(=O)NCC(=O)OCC(=O)N2N=C(c3ccc(Cl)cc3)CC2c2ccco2)cc1C (stereo not drawn) ) = 22.4 µM (active)

Reported EC50 ( O=C(CNC(=O)c1ccco1)NCc1nc2ccccc2[nH]1 ) = > 150 µM (not active)

Reported EC50 ( CC1CCC(C(=O)c2c(O)oc3ccccc3c2=O)CC1 (stereo not drawn) ) = > 150 µM (not active)

Reported EC50 ( CC(NC(=O)Cn1c(=O)[nH]c2ccsc2c1=O)C12CC3CC(CC(C3)C1)C2 (stereo not drawn) ) = > 150 µM (not active)
